# System: Respiratory syncytial virus
# test summary: Antiviral activity against RSV assessed as inhibition of viral replication by cell based assay
# Format: functional, organism-based
# test conditions: human respiratory syncytial virus
property: log10 EC50 (log10 of the value in nM)
Annotation: log10 of EC50, nM basis.

As a guide, the following entries are already answered.
• CO/N=C1/C(=O)N(Cc2nc3ccccc3n2CCCCO)c2ccccc21 = 1.00
• O=C1/C(=N/OCCF)c2ccncc2N1Cc1nc2ccccc2n1CCCCF = 1.79
• COCCCn1c(CN2C(=O)/C(=N/OCc3ccc(C(=O)OC)cc3)c3ccccc32)nc2ccccc21 = 1.70
• COCCCn1c(CN2C(=O)/C(=N/OCC(F)(F)F)c3ccccc32)nc2ccccc21 = 3.44
• CCO/N=C1/C(=O)N(Cc2nc3ccccc3n2CCCOC)c2ccccc21 = 1.77

We now examine a further compound.
Provide only the value of recorded log10 EC50 for CCCCO/N=C1/C(=O)N(Cc2nc3ccccc3n2CCCOC)c2ccccc21 2.42
